Source: BindingDB's records for patent US20250333410

- TEST SYSTEM: UniProtKB Q12809
- Sequence (Q12809 whole entry): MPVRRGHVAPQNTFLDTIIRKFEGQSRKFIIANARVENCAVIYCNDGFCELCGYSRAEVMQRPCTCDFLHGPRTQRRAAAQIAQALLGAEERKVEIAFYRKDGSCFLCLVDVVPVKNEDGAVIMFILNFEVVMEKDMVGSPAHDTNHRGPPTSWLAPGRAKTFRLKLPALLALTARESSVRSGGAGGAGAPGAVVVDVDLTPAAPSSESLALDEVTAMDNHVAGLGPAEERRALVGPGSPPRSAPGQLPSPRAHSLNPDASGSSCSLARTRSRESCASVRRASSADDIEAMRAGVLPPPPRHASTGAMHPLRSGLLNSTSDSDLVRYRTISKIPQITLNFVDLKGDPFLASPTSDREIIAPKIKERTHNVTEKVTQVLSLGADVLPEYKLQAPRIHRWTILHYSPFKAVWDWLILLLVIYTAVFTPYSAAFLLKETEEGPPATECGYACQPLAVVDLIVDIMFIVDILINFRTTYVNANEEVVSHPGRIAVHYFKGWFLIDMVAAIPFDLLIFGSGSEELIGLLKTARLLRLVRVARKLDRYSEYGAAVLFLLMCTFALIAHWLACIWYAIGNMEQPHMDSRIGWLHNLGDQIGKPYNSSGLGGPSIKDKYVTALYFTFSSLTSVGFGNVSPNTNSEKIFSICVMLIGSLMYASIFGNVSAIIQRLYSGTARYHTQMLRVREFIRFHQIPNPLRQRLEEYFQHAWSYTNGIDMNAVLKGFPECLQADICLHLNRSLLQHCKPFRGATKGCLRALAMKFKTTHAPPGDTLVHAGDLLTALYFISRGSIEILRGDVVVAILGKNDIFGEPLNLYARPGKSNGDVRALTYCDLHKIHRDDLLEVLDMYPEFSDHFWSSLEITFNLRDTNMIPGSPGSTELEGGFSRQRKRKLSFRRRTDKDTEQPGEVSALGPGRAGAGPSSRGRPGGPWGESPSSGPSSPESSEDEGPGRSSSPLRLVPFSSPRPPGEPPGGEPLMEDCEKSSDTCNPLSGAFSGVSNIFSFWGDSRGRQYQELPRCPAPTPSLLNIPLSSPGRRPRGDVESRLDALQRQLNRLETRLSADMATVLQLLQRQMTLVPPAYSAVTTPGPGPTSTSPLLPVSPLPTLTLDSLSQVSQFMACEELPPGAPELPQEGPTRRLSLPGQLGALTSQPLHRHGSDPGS
- ASSAY SUMMARY: Test for hERG Potassium Ion Channel
pIC50: −log10 of the molar value.

- COMPOUND: "CCC(=O)COc1cc2cc(Nc3nc(N4CCC(N5CCN(c6cccc7c(C8CCC(=O)NC8=O)nn(C)c67)CC5)C(F)(F)C4)ncc3Cl)ccc2n(C)c1=O (stereo unspecified)"
  TEST SYSTEM: "UniProtKB Q12809"
  pIC50: "< 4.40"
- COMPOUND: "CNC(=O)COc1cc2cc(Nc3nc(N4CC[C@@H](N5CCN(c6ccc(N[C@@H]7CCC(=O)NC7=O)cc6F)CC5)C(F)(F)C4)ncc3Cl)ccc2n(C)c1=O"
  TEST SYSTEM: "UniProtKB Q12809"
  pIC50: "< 4.40"
- COMPOUND: "CNC(=O)COc1cc2cc(Nc3nc(N4CCC(CN5CCC(c6cccc7c6n(C)c(=O)n7C6CCC(=O)NC6=O)CC5)CC4)ncc3Cl)ccc2n(C)c1=O (stereo unspecified)"
  TEST SYSTEM: "UniProtKB Q12809"
  pIC50: "< 4.52"
- COMPOUND: "CNC(=O)COc1cc2cc(Nc3nc(N4CCN(CC5CCN(c6ccc7c8c(oc7c6)C(=O)N(C6CCC(=O)NC6=O)C8)CC5)CC4)ncc3Cl)ccc2n(C)c1=O (stereo unspecified)"
  TEST SYSTEM: "UniProtKB Q12809"
  pIC50: "< 4.52"
- COMPOUND: "CC(=O)COc1cc2cc(Nc3nc(N4CCC(N5CCN(c6c(F)cc(C7CCC(=O)NC7=O)cc6F)CC5)C(F)(F)C4)ncc3Cl)ccc2n(C)c1=O (stereo unspecified)"
  TEST SYSTEM: "UniProtKB Q12809"
  pIC50: "< 4.40"
- COMPOUND: "CNC(=O)COc1cc2cc(Nc3nc(N4CCC(N5CCN(c6ccc(NC7CCC(=O)NC7=O)cc6F)CC5)C(F)(F)C4)ncc3Cl)ccc2n(C)c1=O (stereo unspecified)"
  TEST SYSTEM: "UniProtKB Q12809"
  pIC50: "< 4.40"
- COMPOUND: "CNC(=O)COc1cc2cc(Nc3nc(N4CCC(N5CCN(c6cccc7c6n(C)c(=O)n7C6CCC(=O)NC6=O)CC5)C(F)(F)C4)ncc3Cl)ccc2n(C)c1=O (stereo unspecified)"
  TEST SYSTEM: "UniProtKB Q12809"
  pIC50: "< 4.40"
- COMPOUND: "CNC(=O)COc1cc2cc(Nc3nc(N4CCC(CN5CCC(C6CCN(c7cccc8c(C9CCC(=O)NC9=O)nn(C)c78)CC6)CC5)CC4)ncc3Cl)ccc2n(C)c1=O (stereo unspecified)"
  TEST SYSTEM: "UniProtKB Q12809"
  pIC50: "< 4.40"
- COMPOUND: "CNC(=O)COc1cc2cc(Nc3nc(N4CCN(CC5CC6(CCN(c7scc8c7C(=O)N(C7CCC(=O)NC7=O)C8=O)CC6)C5)CC4)ncc3Cl)ccc2n(C)c1=O (stereo unspecified)"
  TEST SYSTEM: "UniProtKB Q12809"
  pIC50: "< 4.40"
- COMPOUND: "CC(=O)COc1cc2cc(Nc3nc(N4CC[C@@H](N5CCN(c6ccc(N[C@H]7CCC(=O)NC7=O)cc6F)CC5)C(F)(F)C4)ncc3Cl)ccc2n(C)c1=O"
  TEST SYSTEM: "UniProtKB Q12809"
  pIC50: "< 4.40"
- COMPOUND: "CNC(=O)COc1cc2cc(Nc3nc(N4CC[C@H](N5CCN(c6ccc(N[C@@H]7CCC(=O)NC7=O)cc6F)CC5)C(F)(F)C4)ncc3Cl)ccc2n(C)c1=O"
  TEST SYSTEM: "UniProtKB Q12809"
  pIC50: "< 4.40"
